FYI, the data here is from PubChem BioAssay (NCATS).

- Test system: CAOV3
- assay_method_text: Primary qHTS to identify gynecologic anti-cancer compounds using libraries of approved drugs and bioactive compounds (AID 1345084); note: % is set by controls: 0 for no effect and ±100 for the full control effect; nearly all actives have a fitted effect of over 55% in size
- experimental_setup: Gynecologic cancer cell panel viability, ATPlite luminescence, 48 h; series mostly up to 57.5 µM
Results filed as inconclusive are left out. The source made the active and inactive calls. Calls come from the whole dose curve; as a rule, active = well fitted cell-killing curve with a large enough effect; inconclusive = small, poorly fitted or top-dose-only effect, or effect the other way; inactive = flat fitted curve, though single readings scatter.

molecule	system_tested	activity change, negative = cytotoxicity
C[C@@H]1O[C@@H](O[C@@H]2[C@@H](O)[C@H](O[C@@H]3[C@@H](O)[C@@H](O)[C@H](O[C@H]4[C@H](OC(=O)[C@]56CCC(C)(C)C[C@H]5C5=CCC7[C@@]8(C)C[C@H](O)[C@H](O[C@@H]9O[C@H](C(=O)O)[C@@H](O)[C@H](O)[C@H]9O)[C@@](C)(CO)C8[C@H](O)C[C@@]7(C)[C@]5(C)C[C@H]6O)O[C@@H](CO)[C@@H]4O)O[C@H]3C)OC[C@H]2O)[C@H](O)[C@H](O)[C@H]1O (stereo partly specified)	CAOV3	-1.08% [at 6.55 µM] (inactive)
CC1(O)CC(O)C2C(C(=O)O)=COC(OC3OC(CO)C(O)C(O)C3OC(=O)/C=C/c3ccc(O)cc3)C21 (stereo unspecified)	CAOV3	inactive
C[C@@H]1C[C@@H](O)[C@@]23CO[C@]2(CO)CCC[C@@H]3[C@@]12C[C@@H](c1ccoc1)OC2=O	CAOV3	inactive
C=C1CC[C@H]2[C@@](C)(CCC(O)[C@@]2(C)CO)[C@@H]1/C=C/C(=C\C(=O)O)C(=O)O (stereo partly specified)	CAOV3	inactive
C[C@]1(OC(=O)/C=C/c2ccc(O)cc2)C[C@@H](O)[C@]2(O)C=CO[C@@H](O[C@@H]3O[C@H](CO)[C@@H](O)[C@H](O)[C@H]3O)C12 (stereo partly specified)	CAOV3	inactive
C/C1=C\CC(C)(C)/C=C/C/C(C(=O)O)=C/CC1	CAOV3	inactive

----------
Form field: max response (one value per entry).
- Tested on: KB-3-1
- assay_method_text: Cytotoxic Profiling of Annotated Libraries Using Quantitative High-Throughput Screening (AID 1296008); note: % is set by controls: 0 for no effect and ±100 for the full control effect; nearly all actives have a fitted effect of over 60% in size
- experimental_setup: Five cell lines viability, CellTiter-Glo ATP luminescence, 48-72 h; hits give low values
- Protocol: Cell-based phenotypic screening is a commonly used approach to discover biological pathways, novel drug targets, chemical probes and high-quality hit-to-lead molecules. […] A pintool (Kalypsys) was used to transfer 23 nL of compound solution to the 1536-well assay plates. […] Plates were left at room temperature for 10 min before imaging the ATP-coupled luminescence using a ViewLux microplate imager (PerkinElmer, Waltham, MA).
Records with an inconclusive call do not appear.
outcome_measure: max response (%)

compound	uom	test_result
CC1=CCC(O)C2(C)CCC3C(C)C(=O)OC3C12 (configuration not stated)	%	-6.48
COC(=O)CCC1(C)C(C(C)(C)O)C(O)CC2(C)Oc3c(C)c4c(c(OC)c3CC21)C(=O)OC4 (configuration not stated)	%	5
COC1OC(O)C2(CCC3(O2)C(C)CC2OC(=O)C4(C)CCCC3(C)C24)C1O (configuration not stated)	%	-1.51
C[C@@H]1CC[C@]2(C(=O)O[C@@H]3O[C@H](CO[C@@H]4O[C@H](CO)[C@@H](O[C@@H]5O[C@@H](C)[C@H](O)[C@@H](O)[C@H]5O)[C@H](O)[C@H]4O)[C@@H](O)[C@H](O)[C@H]3O)CC[C@]3(C)C(=CCC4[C@@]5(C)C[C@@H](O)[C@H](O)[C@@](C)(CO)C5CC[C@]43C)C2[C@H]1C (some centres not stated)	%	3.97
OC[C@@]1(O)CO[C@@H](OC[C@H]2O[C@@H](Oc3ccccc3)[C@H](O)[C@@H](O)[C@@H]2O)[C@@H]1O	%	0.107
COc1cc(O)c(C(=O)O)c(CCc2ccccc2)c1	%	9.04
O=C(O)c1cc(O[C@@H]2O[C@H](CO)[C@@H](O)[C@H](O)[C@H]2O)ccc1O	%	1.47

----------
- Test system: PA-1
- assay_method_text: Primary qHTS to identify gynecologic anti-cancer compounds using libraries of approved drugs and bioactive compounds (AID 1345084); note: % is set by controls: 0 for no effect and ±100 for the full control effect; nearly all actives have a fitted effect of over 55% in size
- experimental_setup: Gynecologic cancer cell panel viability, ATPlite luminescence, 48 h; series mostly up to 57.5 µM
Records with an inconclusive call do not appear. The source made the active and inactive calls. The call rests on the fitted dose curve; in most records, active means well fitted cell-killing curve with a large enough effect; inconclusive means small, poorly fitted or top-dose-only effect, or effect the other way; inactive means flat fitted curve, though single readings scatter.
outcome_measure: activity change, negative = cytotoxicity

molecule	test_result
C/C=C(\C)C(=O)OC[C@H]1O[C@H](O[C@H]2O[C@H](CO)[C@@H](O)[C@H](O)[C@H]2O[C@@H]2O[C@H](CO)[C@@H](O)[C@H](O)[C@H]2O)[C@H](O[C@@H]2O[C@H](CO)[C@@H](O)[C@H](O)[C@H]2O)[C@@H](O)[C@@H]1O	inactive
C[C@@H]1CC[C@]2(C(=O)O[C@@H]3O[C@H](CO[C@@H]4O[C@H](CO)[C@@H](O[C@@H]5O[C@@H](C)[C@H](O)[C@@H](O)[C@H]5O)[C@H](O)[C@H]4O)[C@@H](O)[C@H](O)[C@H]3O)CC[C@]3(C)C(=CCC4[C@@]5(C)C[C@@H](O)[C@H](O)[C@@](C)(CO)C5CC[C@]43C)C2[C@H]1C (stereo partly specified)	6.43% [at 11.6 µM] (inactive)
C=C1CC2C3(C)C=CC(=O)OC(C)(C)C3CC(OC(C)=O)C2(C)C2C(=O)OC(C)C(=O)C12C (stereo unspecified)	inactive
O=C(OCc1ccccc1O[C@@H]1O[C@H](CO)[C@@H](O)[C@H](O)[C@H]1O)C1(O)C=CCCC1O (stereo partly specified)	inactive
COc1c2c(c(C)c3c1C(=O)OC3)OC1(C)CC(O)C34OC(OC)(CCC3(C)C1C2)OC4(C)CO (stereo unspecified)	inactive
C=C1[C@H]2CCC3[C@]4(C)CCC[C@@](C)(C(=O)O)C4CC[C@]3(C2)[C@H]1OC(C)=O (stereo partly specified)	inactive

----------
- Test system: KB-3-1
- assay_method_text: Cytotoxic Profiling of Annotated Libraries Using Quantitative High-Throughput Screening (AID 1296008); note: % is set by controls: 0 for no effect and ±100 for the full control effect; nearly all actives have a fitted effect of over 60% in size
- experimental_setup: Five cell lines viability, CellTiter-Glo ATP luminescence, 48-72 h; hits give low values
Records with an inconclusive call do not appear.
Entries and their max response
outcome_measure: max response (%)

molecule	test_result
O=C(C1OC1/C=C/c1ccc2c(c1)OCO2)N1CCCCC1 (stereo unspecified)	5.97
C[C@@H]1O[C@@H](OC2C(O[C@H]3[C@H](O[C@H]4CC[C@@]5(C)C(CC[C@]6(C)C5CC=C5C7CC(C)(C)CC(O)[C@]7(C)CC[C@]56C)C4(C)C)O[C@H](C(=O)O)[C@@H](O)[C@@H]3O)OC(CO)C(O)C2O)[C@H](O)[C@H](O)[C@H]1O (stereo partly specified)	3.37
CC1=C2C(=O)C=C(CO)C2C2OC(=O)C(CS(=O)(=O)O)C2C(OC(=O)Cc2ccc(O)cc2)C1 (stereo unspecified)	-6.7
C=CC(C)(O)CC/C=C(\C)C1CC=C(C)C(=O)O1 (stereo unspecified)	2.69
CC(=O)OC/C(=C/C(=O)O)CC[C@@H]1C(C)=CC(=O)[C@@H]2C(C)(C)CCC[C@@]12C	-6.11
N#Cc1cccc(-c2c[nH]c3ncnc(N4CCOCC4)c23)c1	-3.64
CC(=O)NC1C(OC2CCC3(C)C(CCC4(C)C3CC=C3C5CC(C)(C)CCC5(C(=O)O)C(O)CC34C)C2(C)C)OC(CO)C(O)C1O (stereo unspecified)	0.467
COC(=O)C1=COC(OC2OC(CO)C(O)C(O)C2O)C2C(C)C(OC(=O)/C=C/c3ccc(O)cc3)C(O)C12 (stereo unspecified)	1.09
COc1cc(O)cc2c1C(=O)OC(C)C2 (stereo unspecified)	3.07
CC1CCC2C(C(=O)O)=CC3(O)CC(C)(C)CC123 (stereo unspecified)	4.07
CC1(C)CC[C@]2(C(=O)O)CC[C@]3(C)C(=CCC4[C@@]5(C)C[C@H](O)[C@H](O[C@@H]6O[C@H](CO)[C@@H](O)[C@H](O)[C@H]6O)[C@@](C)(CO)C5[C@H](O)C[C@]43C)[C@@H]2C1 (stereo partly specified)	3.96
O=C(O)c1ccnc(-c2cc(C(=O)NCCc3ccccc3)ccn2)c1	6.53
COC(=O)[C@]1(C)CCC[C@@]2(C)[C@@H]3CC[C@@H]4C[C@@]3(CC[C@@H]21)C[C@H]4C(=O)O	9.78
Cc1nc2ccccc2c(-c2ccc3c4c(ccnc24)CCO3)c1[C@H](OC(C)(C)C)C(=O)O	-6.3
C[C@@H]1C[C@@H](O)[C@@]2(CO)C(CO)=CCC[C@@H]2[C@@]12C[C@@H](c1ccoc1)OC2=O	4
CC(=O)O[C@@H]1C(O)C[C@@]2(C)C(CC[C@@H](C)C23Cc2c(O)cc4c(c2O3)CNC4=O)C1(C)C (stereo partly specified)	-3.56

----------
- assay_method_text: Primary redox qHTS assay for identification of artifact compounds. (AID 1845223);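 note: 0% = DMSO and 100% = reference compound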
- experimental_setup: Amplex Red/HRP redox cycling with DTT, fluorescence; series mostly up to 53.8 µM
Records with an inconclusive call do not appear. The source made the active and inactive calls. Calls follow the shape of the dose curve; as a rule, active = well fitted activation curve with a large enough effect; inconclusive = small, poorly fitted or top-dose-only effect; inactive = flat fitted curve, though single readings scatter.

compound	redox activity (% of DA3003)
COc1ccc(S(=O)(=O)Nc2nc(-c3cccc([N+](=O)[O-])c3)cs2)cc1OC	inactive
O=C(O)c1cccc(C(=O)CCC2OC(n3cnc4c(=O)[nH]cnc43)C(O)C2O)c1 (stereo unspecified)	inactive
C/C=C/C=C/C=C/C(=O)O[C@@H]1[C@@H](OC)C2=C(C(=O)N(C(CCC(=O)O)C(=O)O)C2)[C@@]2(C)CCCC(C)(C)[C@H]12 (stereo partly specified)	inactive
C[C@]12CCC[C@](C)(C(=O)O)C1CCC13CC(CO)C(CCC12)C3 (stereo partly specified)	inactive
CCCN(CCN1CCN(c2ccccc2OC)CC1)C1CCc2ncsc2C1 (stereo unspecified)	inactive
CC(=O)O[C@@H]1C(=O)C(C)=C(CCC(C)CC(=O)O)[C@@]2(C)CCCC(C)(C)C12 (stereo partly specified)	inactive
Cc1cc(O[C@@H]2O[C@H](COC(=O)CC(=O)O)[C@@H](O)[C@H](O)[C@H]2O)c(C(C)C)cc1O	inactive
C[C@@]12CC3(S(=O)(=O)O)OC(O1)[C@]1(COC(=O)c4ccccc4)[C@H]3C[C@]21O[C@@H]1O[C@H](CO)[C@@H](O)[C@H](O)[C@H]1O	inactive
CC(=O)/C=C/C1(O)C(C)(C)CC(O)CC1(C)O (stereo unspecified)	inactive
N#Cc1cc(-c2n[nH]c(-c3ccncc3)n2)ccn1	inactive
CSCC1OC(n2cnc3c(=O)[nH]cnc32)C(O)C1O (stereo unspecified)	inactive
COCCN1CCC(C(=O)NO)(S(=O)(=O)c2ccc(Oc3ccc(OC(F)(F)F)cc3)cc2)CC1	inactive
N#Cc1cccc(-c2nc(-c3cccnc3)no2)c1	inactive
CC(C)c1ccc2c(c1)C(O)CC1C(C)(CO)CCCC21C (stereo unspecified)	inactive
CCC(C)/C=C(C)/C=C/C1=CC2=C(Cl)C(=O)C(C)(OC(C)=O)C(=O)C2=CN1C(CCCN=C(N)N)C(=O)O (stereo unspecified)	inactive
CC(=O)OC1C(CO)OC(O[C@H]2[C@H](OC(=O)[C@]34CCC(C)(C)C[C@H]3C3=CCC5[C@@]6(C)CC[C@H](O[C@@H]7O[C@H](C(=O)O)[C@@H](O)[C@H](O[C@@H]8OC[C@@H](O)[C@H](O)[C@H]8O)[C@H]7O[C@@H]7O[C@H](CO)[C@H](O)[C@H](O)[C@H]7O)[C@@](C)(C=O)C6CC[C@@]5(C)[C@]3(C)C[C@H]4O)O[C@H](C)[C@H](OC3OC(C)C(OC4OCC(O)C(O)C4O)C(O)C3O)[C@@H]2O)C(O)C1O (stereo partly specified)	3.62% [at 11.5 µM] (inactive)
COc1c(-c2ccc(O)cc2)cc(OC)c2c1oc1cc(O)c(OC3OC(CO)C(O)C3O)cc12 (stereo unspecified)	inactive
C/C=C/C=C/C=C/C(=O)O[C@@H]1C=C(CO)[C@](O)(CO)[C@@]2(C)CCCC(C)(C)[C@H]12	inactive
O=C(/C=C/c1ccc(O)c(O)c1)O[C@H]1[C@H](OC2CCCCC2O)O[C@H](CO)[C@@H](O)[C@@H]1O (stereo partly specified)	inactive
COC(=O)C(CC1(OC(=O)C(C)C)c2ccccc2N2C(=O)C(C)(C)N(O)C21)n1cnc2ccccc2c1=O (stereo unspecified)	inactive
On1ncc(C2CCNCC2)c1-c1cccc(-c2ccccc2)c1	inactive
CC1=C(CO)CC(C(C)C2CCC3C4CC=C5CC(OC6OC(COC7OC(CO)C(O)C(O)C7O)C(O)C(O)C6O)CC(O)C5(C)C4CCC23C)OC1=O (stereo unspecified)	inactive
CC(O)CCc1ccc(O[C@@H]2O[C@H](CO)[C@@H](O)[C@H](O)[C@H]2O)cc1 (stereo partly specified)	inactive
COc1ccc(-n2c(=O)[nH]c3cc(C(=O)NCc4ccc(Cl)cc4)sc3c2=O)nc1OC	inactive
CCCC(C(=O)O)c1c(C)nc2ccc(Cl)cc2c1-c1ccccc1 (stereo unspecified)	inactive
C=C1C(=O)O[C@@H]2C[C@]3(C)[C@@H](CCC(C)=O)[C@@H]3C[C@H]12	inactive
Cc1ccc2[nH]c(=O)c(C3=NN(C(=O)CCC(=O)O)C(c4ccc(Br)cc4)C3)c(-c3ccccc3)c2c1 (stereo unspecified)	inactive
CC(C)[C@](O)(c1ccc2cc(OC(F)F)c(OC(F)F)cc2c1)c1cn[nH]n1	inactive
CC1(C)CC[C@]2(C(=O)O)CC[C@]3(C)C(=CCC4[C@@]5(C)CC[C@H](O[C@H]6O[C@H](C(=O)O)[C@@H](O)[C@H](O[C@@H]7O[C@H](CO)[C@H](O)[C@H](O)[C@H]7O)[C@H]6O)C(C)(C)C5CC[C@]43C)[C@@H]2C1 (stereo partly specified)	8.43% [at 11.5 µM] (inactive)
COc1cc(/C=C/C(=O)OCC2OC(OC3(CO)OC(CO)C(O)C3O)C(O)C(O)C2O)ccc1O (stereo unspecified)	inactive
C[C@]1(OC(=O)/C=C/c2ccccc2)C[C@@H](O)[C@]2(O)C=CO[C@@H](O[C@@H]3O[C@H](CO)[C@@H](O)[C@H](O)[C@H]3O)[C@@H]21	inactive
